# System: Enterococcus faecium
# experimentNotes: In vitro for antibacterial activity against E. faecium(GC 1182) without pre-incubation in mouse serum
# Type: functional
observationType: MIC

- compound: "CCOC(=O)OCOC(=O)C1=C(S[C@@H]2CCO[C@@H]2CNC(=O)OC(C)OC(C)=O)[C@H](C)C2[C@@H]([C@@H](C)O)C(=O)N12 (some centres undefined)"
  studyTarget: "Enterococcus faecium"
  recordedMeasurement: "> 128 µg/mL"
- compound: "CCOC(=O)OCOC(=O)C1=C(S[C@@H]2CCO[C@@H]2CNC(=O)OCOC(=O)C(C)C)[C@H](C)C2[C@@H]([C@@H](C)O)C(=O)N12 (some centres undefined)"
  studyTarget: "Enterococcus faecium"
  recordedMeasurement: "> 128 µg/mL"
- compound: "CCOC(=O)OCOC(=O)C1=C(S[C@@H]2CCO[C@@H]2CNC(=O)OC(C)OC(=O)C(C)(C)C)[C@H](C)C2[C@@H]([C@@H](C)O)C(=O)N12 (some centres undefined)"
  studyTarget: "Enterococcus faecium"
  recordedMeasurement: "> 128 µg/mL"
- compound: "CCOC(=O)OCOC(=O)C1=C(S[C@@H]2CCO[C@@H]2CNC(=O)OCOC(=O)C(C)(C)C)[C@H](C)C2[C@@H]([C@@H](C)O)C(=O)N12 (some centres undefined)"
  studyTarget: "Enterococcus faecium"
  recordedMeasurement: "> 128 µg/mL"
- compound: "CCCC(=O)OCOC(=O)NC[C@H]1OCC[C@H]1SC1=C(C(=O)[O-])N2C(=O)[C@H]([C@@H](C)O)C2[C@H]1C.[Na+] (some centres undefined)"
  studyTarget: "Enterococcus faecium"
  recordedMeasurement: "128 µg/mL"
- compound: "CC(C)C(=O)OCOC(=O)NC[C@H]1OCC[C@H]1SC1=C(C(=O)[O-])N2C(=O)[C@H]([C@@H](C)O)C2[C@H]1C.[Na+] (some centres undefined)"
  studyTarget: "Enterococcus faecium"
  recordedMeasurement: "> 128 µg/mL"
- compound: "CC(=O)OC(C)OC(=O)NC[C@H]1OCC[C@H]1SC1=C(C(=O)[O-])N2C(=O)[C@H]([C@@H](C)O)C2[C@H]1C.[Na+] (some centres undefined)"
  studyTarget: "Enterococcus faecium"
  recordedMeasurement: "> 128 µg/mL"
- compound: "C[C@@H](O)[C@H]1C(=O)N2C(C(=O)O)=C(S[C@@H]3CCO[C@@H]3CN)[C@H](C)[C@H]12"
  studyTarget: "Enterococcus faecium"
  recordedMeasurement: "64 µg/mL"
- compound: "CCOC(=O)OCOC(=O)C1=C(S[C@@H]2CCO[C@@H]2CN)[C@H](C)C2[C@@H]([C@@H](C)O)C(=O)N12.Cl (some centres undefined)"
  studyTarget: "Enterococcus faecium"
  recordedMeasurement: "128 µg/mL"
